Quick reference for Kd among some binders
Molecular target: T1, FedF_(15–165), N-terminal lectin domain of the F18 fimbrial tip adhesin FedF (Escherichia coli (F18-fimbriated …, NT647 on surface exposed amine groups (in the MST only)))
T1 construct: also called FedF lectin domain
T1 chain: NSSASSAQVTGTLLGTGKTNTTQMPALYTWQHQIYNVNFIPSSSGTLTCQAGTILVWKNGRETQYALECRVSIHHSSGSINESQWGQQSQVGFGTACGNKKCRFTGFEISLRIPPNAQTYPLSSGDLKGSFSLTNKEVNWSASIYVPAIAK
Assay: MST
Conditions: both partners purified
Please state the figure in nM; there is no need to write the unit.

Recorded results for 3 binders are shown here.
[
  {
    "binder": "NbFedF9 (VHH, source: E. coli WK6, periplasmic extract, purified (Ni-NTA); not shown: His6, C-terminal, kept) VHH: QVQLQESGGGSVQAGGSLRLSCAASGYTYSSNCMAWFRQVPGKEREGVASINTRGGITYYADSVKGRFTISRDNAKNTVSLQMNSLKPEDTATYYCAAVREATYSDNRCSVRSYTYDYWGQGTQVTVSS",
    "unit-descriptor": "nM",
    "Kd": 1.58
  },
  {
    "binder": "NbFedF12 (VHH, source: E. coli WK6, periplasmic extract, purified (Ni-NTA)) VHH: QVQLQESGGGSVQAGGSLRLSCAASGNTKSYWMGWFRQAPGKEREGVAVIAGGGAFTYYAESVKGRFTISQDNTKDTVYLAMNSLKPEDTALYYCALRTLNNGGIFLLNSPSSFHYWGQGTQVTVSS",
    "unit-descriptor": "nM",
    "Kd": 29
  },
  {
    "binder": "NbFedF7 (VHH, source: E. coli WK6, periplasmic extract, purified (Ni-NTA); not shown: His6, C-terminal, kept) VHH: QVQLQESGGGSVQAGGSLRLSCTASGYTYRKYCMGWFRQAPGKEREGVACINSGGGTSYYADSVKGRFTISQDNAKDTVFLRMNSLKPEDTAIYYCALSSNSVCPPGHVAWYNDWGQGTQVTVSS",
    "unit-descriptor": "nM",
    "Kd": 5.25
  }
]

**Query** Quick one: Kd of NbFedF6 (VHH, source: E. coli WK6, periplasmic extract, purified (Ni-NTA); not shown: His6, C-terminal, kept) VHH: QVQLQESGGGSVQAGGSLRLSCAASGYTSGRDSMGWFRQAPGKEREGVACIDTSGIVNYADSVKGRFTISQDSAKKTLYLEMNSLKPEDTALYSCATGPFVYGRGCLGQAFYSYWGQGTQVTVSS ?
**Result** 3.57
